# target or test system: Protein deacetylase HDAC6 (Homo sapiens)
# assay remarks: Inhibition of C-terminal FLAG-tagged human recombinant full length HDAC6 expressed in baculovirus expression system using Boc-Lys(Ac)-AMC as substrate preincubated with enzyme for 15 mins followed by substrate addition and measured after 60 mins by fluorescence based analysis
pIC50: −log10 of the molar value.
Reported pIC50 by item:

| compound | pIC50 |
| --- | --- |
| Nc1ccccc1NC(=O)c1ccc(COc2ccc(CNC(=O)C3CCCO3)cc2)cc1 (configuration not stated) | < 5.00 |
| Nc1ccccc1NC(=O)c1ccc(COc2ccc(CNC(=O)[C@@H]3CCCN3C(=O)OCc3ccccc3)cc2)cc1 | < 5.00 |
| Nc1ccccc1NC(=O)c1ccc(COc2ccc(CNC(=O)c3cc4ccccc4[nH]3)cc2)cc1 | < 5.00 |
| Nc1ccccc1NC(=O)c1ccc(COc2ccc(NC(=O)[C@@H]3CCC(=O)N3Cc3ccccc3)cc2)cc1 | < 5.00 |
| Nc1ccccc1NC(=O)c1ccc(COc2ccc(CNC(=O)[C@@H]3CCC(=O)N3Cc3ccc(Br)cc3)cc2)cc1 | < 4.00 |
| Nc1ccccc1NC(=O)c1ccc(COc2ccc(CNC(=O)[C@H]3CCC(=O)N3Cc3ccccc3)cc2)cc1 | < 4.00 |
| O=C(Nc1ccccc1)c1ccc(COc2ccc(CNC(=O)[C@@H]3CCC(=O)N3Cc3ccccc3)cc2)cc1 | < 5.00 |
| O=C(NCc1ccc(OCc2ccc(B(O)O)cc2)cc1)[C@@H]1CCC(=O)N1Cc1ccccc1 | < 5.00 |
| Cl.Cl.Nc1ccccc1NC(=O)c1ccc(COc2ccc(CNC(=O)[C@H]3CCCN3)cc2)cc1 | < 5.00 |
| Nc1ccccc1NC(=O)c1ccc(COc2ccc(CNC(=O)[C@@H]3CCCN3)cc2)cc1 | < 4.00 |
| Nc1ccccc1NC(=O)c1ccc(COc2ccc(CNC(=O)[C@@H]3CCCN3C(=O)c3ccccc3)cc2)cc1 | < 5.00 |
| O=C(O)c1ccc(COc2ccc(CNC(=O)[C@@H]3CCC(=O)N3Cc3ccccc3)cc2)cc1 | < 5.00 |
| CC(C)(C)OC(=O)NCc1ccc(OCc2ccc(C(=O)Nc3ccccc3N)cc2)cc1 | < 5.00 |
| O=C(O)c1ccc(COc2ccc(CNC(=O)[C@@H]3CCC(=O)N3Cc3ccc(Br)cc3)cc2)cc1 | < 5.00 |
| O=C(NCc1ccccc1)c1ccc(COc2ccc(CNC(=O)[C@@H]3CCC(=O)N3Cc3ccccc3)cc2)cc1 | < 5.00 |
| Nc1ccccc1NC(=O)c1ccc(COc2ccc(CNC(=O)[C@@H]3CCCN3Cc3ccccc3)cc2)cc1 | < 4.00 |
| Nc1ccccc1NC(=O)c1ccc(COc2ccc(CNC(=O)[C@@H]3CCCN3Cc3ccc(F)cc3)cc2)cc1 | < 4.00 |

====

# target or test system: Histone deacetylase 2 (Homo sapiens, UniProt Q92769)
# Sequence (Q92769 whole entry): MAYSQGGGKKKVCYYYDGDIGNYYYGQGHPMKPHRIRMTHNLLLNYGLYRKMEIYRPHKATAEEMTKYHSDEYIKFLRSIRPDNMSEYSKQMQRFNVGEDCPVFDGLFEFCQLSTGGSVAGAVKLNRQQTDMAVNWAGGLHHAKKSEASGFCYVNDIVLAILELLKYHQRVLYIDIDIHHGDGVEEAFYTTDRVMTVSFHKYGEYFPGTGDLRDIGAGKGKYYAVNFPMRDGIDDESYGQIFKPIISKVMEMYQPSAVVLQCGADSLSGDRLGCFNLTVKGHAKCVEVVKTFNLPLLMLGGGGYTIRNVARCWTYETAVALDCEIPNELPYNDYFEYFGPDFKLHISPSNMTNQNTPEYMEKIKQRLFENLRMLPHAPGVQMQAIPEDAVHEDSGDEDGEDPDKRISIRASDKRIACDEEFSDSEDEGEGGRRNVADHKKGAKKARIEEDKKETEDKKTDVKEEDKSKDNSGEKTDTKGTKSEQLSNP
# assay remarks: Inhibition of human recombinant HDAC2 using Ac-Leu-Gly-Lys(Ac)-AMC as substrate preincubated with enzyme for 30 mins followed by substrate addition and measured after 90 mins by fluorescence based analysis
Reported IC50 values are given for each entry in this list.

| chemical smiles | target or test system | IC50 / nM |
| --- | --- | --- |
| Nc1ccccc1NC(=O)c1ccc(COc2ccc(CN3C(=O)CC[C@H]3CC(=O)NCc3ccccc3)cc2)cc1 | Histone deacetylase 2 (Homo sapiens, UniProt Q92769) | 217 |
| Nc1ccccc1NC(=O)c1ccc(COc2ccc(CNC(=O)[C@@H]3CCCN3Cc3ccccc3)cc2)cc1 | Histone deacetylase 2 (Homo sapiens, UniProt Q92769) | 192 |
| Nc1ccccc1NC(=O)c1ccc(COc2ccc(CNC(=O)[C@@H]3CCC(=O)N3Cc3ccc(F)cc3)cc2)cc1 | Histone deacetylase 2 (Homo sapiens, UniProt Q92769) | 348 |
| Nc1ccccc1NC(=O)c1ccc(COc2ccc(CNC(=O)[C@@H]3CCCN3)cc2)cc1 | Histone deacetylase 2 (Homo sapiens, UniProt Q92769) | 72 |
| Nc1ccccc1NC(=O)c1ccc(COc2ccc(CNC(=O)[C@H]3CCC(=O)N3Cc3ccccc3)cc2)cc1 | Histone deacetylase 2 (Homo sapiens, UniProt Q92769) | 143 |
| Nc1ccccc1NC(=O)c1ccc(COc2ccc(CNC(=O)[C@@H]3CCCN3Cc3ccc(F)cc3)cc2)cc1 | Histone deacetylase 2 (Homo sapiens, UniProt Q92769) | 196 |
| Nc1ccccc1NC(=O)c1ccc(COc2ccc(CNC(=O)[C@@H]3CCC(=O)N3Cc3ccc(Br)cc3)cc2)cc1 | Histone deacetylase 2 (Homo sapiens, UniProt Q92769) | 82 |
| Nc1ccccc1NC(=O)c1ccc(COc2ccc(CNC(=O)[C@@H]3CCC(=O)N3Cc3ccccc3)cc2)cc1 | Histone deacetylase 2 (Homo sapiens, UniProt Q92769) | 116 |
| Nc1ccccc1NC(=O)c1ccc(COc2ccc(CNC(=O)[C@H]3CCCN3Cc3ccccc3)cc2)cc1 | Histone deacetylase 2 (Homo sapiens, UniProt Q92769) | 83 |

====

# target or test system: Histone deacetylase 1 (Homo sapiens)
# Sequence (Q13547 whole entry): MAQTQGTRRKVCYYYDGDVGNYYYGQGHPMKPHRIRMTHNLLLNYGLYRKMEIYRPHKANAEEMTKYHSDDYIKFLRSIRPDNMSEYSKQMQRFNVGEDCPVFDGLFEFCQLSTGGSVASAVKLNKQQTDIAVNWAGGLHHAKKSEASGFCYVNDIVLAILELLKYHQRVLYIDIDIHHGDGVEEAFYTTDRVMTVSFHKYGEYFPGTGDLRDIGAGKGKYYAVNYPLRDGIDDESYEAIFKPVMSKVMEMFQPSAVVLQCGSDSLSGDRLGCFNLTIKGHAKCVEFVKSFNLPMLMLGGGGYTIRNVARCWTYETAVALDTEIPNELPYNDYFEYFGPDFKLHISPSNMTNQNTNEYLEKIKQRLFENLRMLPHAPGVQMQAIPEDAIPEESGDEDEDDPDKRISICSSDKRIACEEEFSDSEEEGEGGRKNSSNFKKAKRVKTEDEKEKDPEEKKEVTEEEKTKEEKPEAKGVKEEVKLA
# assay remarks: Inhibition of human recombinant HDAC1 using Ac-Leu-Gly-Lys(Ac)-AMC as substrate preincubated with enzyme for 30 mins followed by substrate addition and measured after 90 mins by fluorescence based analysis
reported endpoint: IC50 (nM)

| chemical smiles | units text | reading qualifier | result value |
| --- | --- | --- | --- |
| O=C(NCc1ccccc1)c1ccc(COc2ccc(CNC(=O)[C@@H]3CCC(=O)N3Cc3ccccc3)cc2)cc1 | nM | > | 10000 |
| O=C(O)c1ccc(COc2ccc(CNC(=O)[C@@H]3CCCN3Cc3ccccc3)cc2)cc1 | nM | > | 10000 |
| Nc1ccccc1NC(=O)c1ccc(COc2ccc(NC(=O)[C@@H]3CCC(=O)N3Cc3ccccc3)cc2)cc1 | nM | = | 430 |
| Nc1ccccc1NC(=O)c1ccc(COc2ccc(CNC(=O)[C@@H]3CCCN3C(=O)OCc3ccccc3)cc2)cc1 | nM | = | 202 |

====

# target or test system: Protein deacetylase HDAC6 (Homo sapiens, UniProt Q9UBN7)
# Sequence (Q9UBN7 whole entry): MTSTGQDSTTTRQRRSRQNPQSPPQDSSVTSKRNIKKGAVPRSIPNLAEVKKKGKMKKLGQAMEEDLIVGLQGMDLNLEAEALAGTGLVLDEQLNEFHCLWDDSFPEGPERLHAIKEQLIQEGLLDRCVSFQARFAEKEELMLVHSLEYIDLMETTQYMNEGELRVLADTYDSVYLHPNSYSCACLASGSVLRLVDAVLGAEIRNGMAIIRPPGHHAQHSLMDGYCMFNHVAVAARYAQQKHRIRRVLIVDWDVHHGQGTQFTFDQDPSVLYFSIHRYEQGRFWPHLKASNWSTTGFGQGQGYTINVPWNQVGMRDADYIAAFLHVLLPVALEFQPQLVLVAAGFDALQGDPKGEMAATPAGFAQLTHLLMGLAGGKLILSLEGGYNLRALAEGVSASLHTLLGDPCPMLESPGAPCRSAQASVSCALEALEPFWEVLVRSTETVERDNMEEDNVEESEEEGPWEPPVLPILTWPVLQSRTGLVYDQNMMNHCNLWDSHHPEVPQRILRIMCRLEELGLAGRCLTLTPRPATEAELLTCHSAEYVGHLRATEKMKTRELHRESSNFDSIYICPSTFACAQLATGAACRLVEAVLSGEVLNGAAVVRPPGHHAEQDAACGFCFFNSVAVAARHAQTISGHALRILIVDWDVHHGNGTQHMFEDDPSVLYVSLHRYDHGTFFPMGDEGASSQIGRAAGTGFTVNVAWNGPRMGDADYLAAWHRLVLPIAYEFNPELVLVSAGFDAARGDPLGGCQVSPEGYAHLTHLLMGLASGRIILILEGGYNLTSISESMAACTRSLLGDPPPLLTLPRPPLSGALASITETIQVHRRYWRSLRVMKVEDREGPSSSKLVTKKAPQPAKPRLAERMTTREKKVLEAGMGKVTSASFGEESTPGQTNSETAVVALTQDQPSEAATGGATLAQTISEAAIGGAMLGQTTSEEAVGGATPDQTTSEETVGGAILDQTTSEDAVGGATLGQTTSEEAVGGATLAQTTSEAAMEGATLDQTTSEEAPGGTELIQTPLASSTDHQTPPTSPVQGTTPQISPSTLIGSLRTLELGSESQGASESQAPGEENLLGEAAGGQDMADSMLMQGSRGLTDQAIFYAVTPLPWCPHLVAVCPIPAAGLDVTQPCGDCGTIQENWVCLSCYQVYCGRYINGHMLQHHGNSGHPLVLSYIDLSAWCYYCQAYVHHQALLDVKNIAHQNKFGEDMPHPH
# assay remarks: Inhibition of C-terminal FLAG-tagged human recombinant full length HDAC6 expressed in baculovirus expression system using Boc-Lys(Ac)-AMC as substrate preincubated with enzyme for 15 mins followed by substrate addition and measured after 60 mins by fluorescence based analysis
Some compounds, each annotated with its measured IC50.
reported endpoint: IC50

| chemical smiles | target or test system | reported endpoint | result value |
| --- | --- | --- | --- |
| NCc1ccc(OCc2ccc(C(=O)Nc3ccccc3N)cc2)cc1 | Protein deacetylase HDAC6 (Homo sapiens, UniProt Q9UBN7) | IC50 | > 10 µM |
| O=C(O)c1ccc(COc2ccc(CNC(=O)[C@@H]3CCCN3Cc3ccccc3)cc2)cc1 | Protein deacetylase HDAC6 (Homo sapiens, UniProt Q9UBN7) | IC50 | > 10 µM |
| Nc1ccccc1NC(=O)c1ccc(COc2ccc(CNC(=O)[C@@H]3CCC(=O)N3Cc3ccccc3)cc2)cc1 | Protein deacetylase HDAC6 (Homo sapiens, UniProt Q9UBN7) | IC50 | > 100 µM |
| Nc1ccccc1NC(=O)c1ccc(COc2ccc(CN3C(=O)CC[C@H]3CC(=O)NCc3ccccc3)cc2)cc1 | Protein deacetylase HDAC6 (Homo sapiens, UniProt Q9UBN7) | IC50 | > 100 µM |
| Nc1ccccc1NC(=O)c1ccc(COc2ccc(CNC(=O)c3ccccn3)cc2)cc1 | Protein deacetylase HDAC6 (Homo sapiens, UniProt Q9UBN7) | IC50 | > 10 µM |
| Nc1ccccc1NC(=O)c1ccc(COc2ccc(CNC(=O)[C@H]3CCCN3Cc3ccccc3)cc2)cc1 | Protein deacetylase HDAC6 (Homo sapiens, UniProt Q9UBN7) | IC50 | > 100 µM |
| O=C(NO)c1ccc(COc2ccc(CNC(=O)[C@@H]3CCC(=O)N3Cc3ccccc3)cc2)cc1 | Protein deacetylase HDAC6 (Homo sapiens, UniProt Q9UBN7) | IC50 | 0.143 µM |
| Nc1ccccc1NC(=O)c1ccc(COc2ccc(CNC(=O)[C@@H]3CCC(=O)N3Cc3ccc(F)cc3)cc2)cc1 | Protein deacetylase HDAC6 (Homo sapiens, UniProt Q9UBN7) | IC50 | > 100 µM |
